target-of-assay: glutathione S-transferase (GST)-fused full-length human Syk protein (Homo sapiens)
Construct: (GST)-fused full-length human Syk protein; GST (glutathione S-transferase); purchased Carna Biosciences
procedure-details: Syk enzyme assay
Assay type: biochemical
conditions-used: Syk enzyme assay, Test Example 1; read-out: IC50 of Syk-inhibitory activity
Reported IC50 values are given for each entry in this list.

Below, 10 compounds whose answers are already recorded.
>>> measurement("NC(=O)c1cc(F)c(NC2CCCCC2N)nc1Nc1cncc(NC(=O)c2ccsc2)c1 (stereo not drawn)")
"< 10 nM"
>>> measurement("CC(C)COc1cc(Nc2nc(NC3CCCCC3N)c(F)cc2C(N)=O)ccn1 (stereo not drawn)")
"< 10 nM"
>>> measurement("COc1ncc(Nc2nc(N[C@@H]3CCCC[C@@H]3N)c(F)cc2C(N)=O)c2ccccc12 (relative stereo)")
"100 to 1000 nM"
>>> measurement("CCn1ncc2ccc(Nc3nc(N[C@H](CC4CC4)[C@H](C)N)c(F)cc3C(N)=O)cc21")
"10 to 50 nM"
>>> measurement("CC(C)C[C@H](CN)Nc1nc(Nc2cncc(C3CC3)c2)c(C(N)=O)cc1F")
"< 10 nM"
>>> measurement("NC(=O)c1cc(Nc2nc(N[C@@H]3CCCC[C@@H]3N)c(F)cc2C(N)=O)ccn1")
"< 10 nM"
>>> measurement("COCCOc1ncc(Nc2nc(N[C@@H]3CCCC[C@@H]3N)c(F)cc2C(N)=O)c2ccccc12 (relative stereo)")
"100 to 1000 nM"
>>> measurement("Cc1cncc(Nc2nc(NC3CCCCC3N)c(Br)cc2C(N)=O)c1 (stereo not drawn)")
"< 10 nM"
>>> measurement("COc1ccc2ncc(Nc3nc(N[C@@H](CN)CC(C)C)c(F)cc3C(N)=O)cc2c1")
"< 10 nM"
>>> measurement("NC(=O)c1cc(F)c(N[C@H](Cc2ccccc2)C(N)=O)nc1Nc1ccnc2c1ccn2CC1CC1")
"< 10 nM"

Challenge: // lookup IC50 for NC(=O)c1cc(F)c(NC2CCCCC2N)nc1Nc1ccnc(-c2cc(Cl)ccc2F)c1 (stereo not drawn)
Response given: < 10 nM

Challenge: // lookup IC50 for NC(=O)c1cc(F)c(N[C@@H]2CCCC[C@@H]2N)nc1Nc1cnc(-n2cccn2)c(F)c1
Response given: 10 to 50 nM

Challenge: // lookup IC50 for CCCC[C@H](CN)Nc1nc(Nc2ccc3c(cnn3CCOC)c2)c(C(N)=O)cc1F
Response given: 10 to 50 nM

Challenge: // lookup IC50 for NC(=O)c1cc(F)c(N[C@@H]2CCCC[C@@H]2N)nc1Nc1ccc2c(F)nn(C3CC3)c2c1
Response given: < 10 nM

Challenge: // lookup IC50 for NC(=O)c1cc(F)c(N[C@@H]2CCCC[C@@H]2N)nc1Nc1ccnc2c1ccn2C1CC1
Response given: < 10 nM
